Assay: HCT-116 Cellular Cytotoxicity Assay
Settings: human, HCT-116 cells, pH 7.2
Reported EC50 at 72 h values follow for various compounds
valueType: EC50 at 72 h (µM)

{"columns": ["structureNotation", "valueType", "readoutNumber"],
 "data": [
  ["CC(=O)c1cc([N+](=O)[O-])c(Sc2cccc(Cl)c2Cl)s1", "EC50 at 72 h", 9.21],
  ["O=C(Nc1cnc2ccccc2c1)c1cc([N+](=O)[O-])c(Sc2c(Cl)cncc2Cl)s1", "EC50 at 72 h", 5.15],
  ["NS(=O)(=O)c1ccc(NC(=O)c2cc([N+](=O)[O-])c(Sc3c(Cl)cncc3Cl)s2)cc1", "EC50 at 72 h", 6.17],
  ["CN1C(C)(C)CC(NC(=O)c2cc([N+](=O)[O-])c(Sc3c(Cl)cncc3Cl)s2)CC1(C)C", "EC50 at 72 h", 7.9],
  ["CC(=O)c1cc([N+](=O)[O-])c(Sc2cc(Cl)cc(Cl)c2)s1", "EC50 at 72 h", 8.13],
  ["COc1ccc(NC(=O)c2cc([N+](=O)[O-])c(Sc3c(Cl)cncc3Cl)s2)cn1", "EC50 at 72 h", 7.23],
  ["CN1CCC(NC(=O)c2cc([N+](=O)[O-])c(Sc3c(Cl)cncc3Cl)s2)CC1", "EC50 at 72 h", 6.52],
  ["Cc1cnc(CNC(=O)c2cc([N+](=O)[O-])c(Sc3c(Cl)cncc3Cl)s2)cn1", "EC50 at 72 h", 7.18],
  ["CN(C)CCCOc1ccc(NC(=O)c2cc([N+](=O)[O-])c(Sc3c(Cl)cncc3Cl)s2)cc1", "EC50 at 72 h", 3.37],
  ["O=C(Nc1ccc2ncccc2c1)c1cc([N+](=O)[O-])c(Sc2c(Cl)cncc2Cl)s1", "EC50 at 72 h", 7.62],
  ["CN(C)CCNc1ccc(NC(=O)c2cc([N+](=O)[O-])c(Sc3c(Cl)cncc3Cl)s2)cn1", "EC50 at 72 h", 3.96],
  ["O=C(Nc1nccs1)c1cc([N+](=O)[O-])c(Sc2c(Cl)cncc2Cl)s1", "EC50 at 72 h", 12.9],
  ["O=C(Nc1cccc2cnccc12)c1cc([N+](=O)[O-])c(Sc2c(Cl)cncc2Cl)s1", "EC50 at 72 h", 4.23],
  ["COc1cc(NC(=O)c2cc(C#N)c(Sc3c(Cl)cncc3Cl)s2)ccc1OCCCN(C)C", "EC50 at 72 h", 3.1],
  ["O=C(Nc1ccon1)c1cc([N+](=O)[O-])c(Sc2c(Cl)cncc2Cl)s1", "EC50 at 72 h", 10.9],
  ["O=C(Nc1cc(C2CC2)n[nH]1)c1cc([N+](=O)[O-])c(Sc2c(Cl)cncc2Cl)s1", "EC50 at 72 h", 11],
  ["CC(=O)c1cc([N+](=O)[O-])c(Sc2ccc(Cl)c(Cl)c2)s1", "EC50 at 72 h", 14.8]
]}
